Molecular target: T1, soluble human BLyS (human, UniProt Q9Y275 134-285)
T1 construct: also called hBLyS; human BAFF (BLyS)
Test: ELISA, soluble hBLyS
Quick reference: pIC50 of the listed items.
Schema: pIC50 number; meaning minus log10 of the concentration expressed in molar units.

Consider the worked cases shown below.
8A12 IgG expressed in HEK293 cells (antibody, V domains shown, IgG from HEK293-FreeStyle cells) VH: QVQLVQSGGGLVQPGGSLRLSCAASGFTFSSYAMSWVRQAPGKGLEWVSAISGSGGSTYYADSVKGRFTISRDNSKNTLYLQMNSLRAEDTAVYYCAREGQGYDILTGYYTRGYYFDYWGQGTLVTVSS VL: QSALTQPASVSGSPGQSITISCTGTSSDVGGYNYVSWYQQLPGKAPKLMIYEVSKRPSGVPDRFSGSKSGNTASLTISGLQAEDEADYYCSSYAGSSSWVFGGGTKLTVLG : 7.80
1B5 IgG expressed in HEK293 cells (antibody, V domains shown, IgG from HEK293-FreeStyle cells) VH: QVQLQESGPGLVEPSETLSLTCTVSGGSISGRNYYWGWIRQSTGKGLEWIGSIYYSGSTYYNPSLKSRVTISVDTSKNQFSLKLSSVTAADTAVYYCARDLANYDILTGYYRARGAFDIWGQGTMVTVSS VL: QSALTQPASVSGSPGQSITISCTGTSSDVGGYNYVSWYQQHPGKAPKLMIYDVNKRPSGVPDRFSGSKSANTASLTVSGLQAEDEADYYCSSYTAGGNWVFGGGTKLTVLG : 7.82
8D12 IgG expressed in HEK293 cells (antibody, V domains shown, IgG from HEK293-FreeStyle cells; also called 8D12 (293)) VH: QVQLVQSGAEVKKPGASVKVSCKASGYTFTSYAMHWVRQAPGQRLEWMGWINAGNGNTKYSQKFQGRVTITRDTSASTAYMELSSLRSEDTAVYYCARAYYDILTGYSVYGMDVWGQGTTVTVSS VL: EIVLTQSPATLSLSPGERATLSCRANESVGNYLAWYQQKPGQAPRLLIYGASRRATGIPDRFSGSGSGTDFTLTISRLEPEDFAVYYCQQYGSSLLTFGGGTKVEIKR : 9.89
5B7 IgG expressed in HEK293 cells (antibody, V domains shown, also called 5B7 (293); 5B7-HEK293) VH: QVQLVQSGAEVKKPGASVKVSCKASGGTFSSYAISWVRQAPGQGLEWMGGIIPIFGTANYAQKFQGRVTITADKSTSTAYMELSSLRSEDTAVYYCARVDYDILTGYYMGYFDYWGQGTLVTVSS VL: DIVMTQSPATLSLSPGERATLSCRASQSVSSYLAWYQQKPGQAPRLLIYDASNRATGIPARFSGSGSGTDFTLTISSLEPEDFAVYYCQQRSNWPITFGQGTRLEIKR : 10.00
9F8 IgG expressed in HEK293 cells (antibody, V domains shown, IgG from HEK293-FreeStyle cells) VH: QVQLQQSGAEVKKPGASVKVSCKASGYTFTSYYMHWVRQAPGQGLEWMGWINAGNGNTKYSQKFQGRVTITRDTSASTAYMELSSLRSEDTAVYYCARDNLSYDILTGYSFGGWFDPWGQGTLVTVSS VL: QSALTQPASVSGSPGQSITISCTGTSSDIGRYNYVSWYQQRPGRAPKVIIYDVSSRPSGVSKRFSASKSGNTASLTISGLQAEDEAVYYCSSYTRITTLYVFGPGTKVTVLG : 9.82

Incoming: May I ask what pIC50 has been recorded for 6C10 IgG expressed in HEK293 cells (antibody, V domains shown, IgG from HEK293-FreeStyle cells; also called 6C10 (293)) VH: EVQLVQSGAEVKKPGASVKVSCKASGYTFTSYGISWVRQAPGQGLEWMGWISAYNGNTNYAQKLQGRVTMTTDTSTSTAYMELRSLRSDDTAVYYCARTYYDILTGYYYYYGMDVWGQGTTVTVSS VL: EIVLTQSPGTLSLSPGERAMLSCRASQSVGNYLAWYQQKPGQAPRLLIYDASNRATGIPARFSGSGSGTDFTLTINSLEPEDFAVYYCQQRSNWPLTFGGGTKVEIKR ?
Outgoing: 9.92
